# reported TGI; entries follow
System: OVCAR-4 ovarian
Assay: NCI tumour cell line growth inhibition, 48 h

These solved cases illustrate the format of a correct answer.
[
  {
    "molecule": "C=C(C)c1ccccc1 (tested in a mixture with another compound)",
    "TGI": "> 100 µM"
  },
  {
    "molecule": "NC(=O)c1ncn2c1CNC(=O)C2",
    "TGI": "> 100 µM"
  },
  {
    "molecule": "Cc1ccc(S(=O)(=O)NNC(=O)Nc2ccc(Cl)cc2)cc1",
    "TGI": "> 100 µM"
  },
  {
    "molecule": "NNC(=O)c1n[nH]n(N)c1=S",
    "TGI": "> 100 µM"
  },
  {
    "molecule": "CCC1(CC)C(=O)N(C(=O)c2ccc(C)cc2)N(C(=O)c2ccc(C)cc2)C1=O",
    "TGI": "> 75 µM"
  }
]

Here is the next item to consider.
Can you share its TGI? I mean this molecule: `COc1ccc(C(=O)c2c(C(C(=O)c3ccc(OC)cc3)C(=O)c3ccc(OC)cc3)n(C(=O)c3ccc(OC)cc3)c3ccccc23)cc1` > 100 µM

----------
# reported TGI; entries follow
Test system: EKVX NSCLC
Test: NCI tumour cell line growth inhibition, 48 h

These solved cases illustrate the format of a correct answer.
[
  {
    "compound": "C[O+]=c1cccc2ssnc1-2",
    "result": "> 100 µM"
  },
  {
    "compound": "CS(=O)(=O)c1ccc(Oc2cc(F)cc(C#N)c2)c2c1[C@H](O)[C@H](F)[C@H]2F",
    "result": "> 100 µM"
  },
  {
    "compound": "O=CC12c3ccccc3C(c3ccccc31)C1C(=O)NC(=O)C12 (stereo not drawn)",
    "result": "> 100 µM"
  },
  {
    "compound": "CC(C)=Cc1cc2c(cc1O)CCC1C2CC[C@@]2(C)C1CC[C@@H]2O (stereo partly drawn)",
    "result": "31.5 µM"
  }
]

Can you share its TGI? I mean this compound: `S=C(S)N1CCOCC1` > 100 µM

Lookup CC12OC(CC(O)C1O)n1c3ccccc3c3c4c(c5c6ccccc6n2c5c31)C(=O)N(CCN1CCCC1)C4=O (stereo not drawn) 9.64 µM

Lookup `Cn1nc(-c2ccccc2)c(C(=O)/C=C/c2ccc(F)cc2)c(N2CCCC2)c1=O` 52.9 µM

Lookup `O=C(NCc1ccccc1)c1cc2ccccc2oc1=Nc1ccccc1F` > 100 µM

----------
System: DU-145 prostate
Assay: NCI tumour cell line growth inhibition, 48 h
# reported TGI; entries follow

These solved cases illustrate the format of a correct answer.
[
  {
    "compound": "O=c1ssc2c1Nc1c(ssc1=O)S2",
    "tested on": "DU-145 prostate",
    "TGI": "26.2 µM"
  },
  {
    "compound": "COc1oc(C(=O)NC2CCCCC2)c(-c2ccc(Cl)cc2)c1S(=O)(=O)c1ccccc1",
    "tested on": "DU-145 prostate",
    "TGI": "> 74.4 µM"
  }
]

Can you share its TGI? I mean this compound: `OCc1cn(Cc2ccc(Cl)cc2)c2ccccc12` 31.8 µM

Lookup `CC(=O)Nc1nc2ncc(C=O)nc2c(=O)[nH]1` > 100 µM

Lookup `NC(=O)c1ncn2c1CNC(=O)C2` > 100 µM

Lookup COC1C(O)CC(OC2CC(OC3CC(O[C@@H]4C(=O)c5c(cc6cc(OC7CC(OC8CC(O)C(O)C(C)O8)C(O)C(C)O7)c(C)c(O)c6c5O)CC4[C@H](OC)C(=O)C(C)=O)OC(C)C3O)OC(C)C2O)OC1C (stereo not given in full) > 32.2 µM

Lookup `COc1cc(/C=C2\CN(S(=O)(=O)c3ccc(C)cc3)C/C(=C\c3cc(CN4CCOCC4)c(O)c(OC)c3)C2=O)cc(CN2CCOCC2)c1O` > 100 µM

Lookup CC1(c2ccccc2)N=C(C(N)=O)c2[nH]cnc2N1 (stereo not given) > 100 µM

Lookup Cc1ccc(C2C(C(=O)C(C)(C)C)N2S(=O)(=O)c2ccc(C)cc2)cc1 (stereo not given) 38.6 µM
